# Assay Notes: logP determination by HPLC (EEC directive 79/831 Annex V. A8)
# Type: physicochemical
# Condition Summary: HPLC gradient method, acetonitrile/0.1% aqueous phosphoric acid; Table 1
# Procedure: *) The logP values were determined in accordance with EEC directive 79/831 Annex V. A8 by HPLC (gradient method, acetonitrile/0.1% aqueous phosphoric acid)
Reported Metric: logP*

Compound	Reported Metric	Endpoint Result
CC(C)ONc1c(-c2c(F)c(F)c(F)c(F)c2F)c(Cl)nc2ncnn12 [Example 122]	logP*	3.04
CC(=NNc1c(-c2c(F)cc(F)cc2F)c(Cl)nc2ncnn12)C(F)(F)F [Example 165]	logP*	3.07
CC(C)=NN(CC(C)C)c1c(-c2c(F)cc(F)cc2F)c(Cl)nc2ncnn12 [Example 158]	logP*	3.63
Fc1ccccc1-c1c(Cl)nc2ncnn2c1NOCc1c(Cl)cccc1Cl [Example 101]	logP*	3.3
CCN(N)c1c(-c2c(F)cc(F)cc2F)c(Cl)nc2ncnn12 [Example 17]	logP*	2.27
